- Test system: Escherichia coli
- measurement-notes: Antimicrobial activity against Escherichia coli isolate 386T expressing beta-lactamase KPC2, OXA-9 and PFGE cluster 1 isolated from wound of patient by agar dilution method
- Format: functional
assay-readout: MIC (µg/mL)
Respond with the bare value in µg/mL.

molecule | output-unit | MIC
C[C@@H](O)[C@H]1C(=O)N2C(C(=O)O)=C(SCCNC=N)C[C@H]12 [IMIPENEM ANHYDROUS] | µg/mL | 1
C[C@@H](O)[C@H]1C(=O)N2C(C(=O)O)=C(S[C@@H]3CN[C@H](C(=O)N(C)C)C3)[C@H](C)[C@H]12 [MEROPENEM] | µg/mL | 0.25

Lookup: Any idea what its MIC is? The molecule is "C[C@@H](O)[C@H]1C(=O)N2C(C(=O)O)=C(S[C@@H]3CN[C@H](C(=O)Nc4cccc(C(=O)O)c4)C3)[C@H](C)[C@H]12"
Found: 1

###

- Test system: Escherichia coli
- measurement-notes: Antimicrobial activity against Escherichia coli isolate 360 expressing beta-lactamase KPC2, CTX-M-15, OXA-9, TEM and PFGE cluster 1 isolated from urine of patient by vitek-2 method
- Type: functional
- run-conditions: isolate 360, Urine
assay-readout: MIC

smiles-structure | MIC
CC(C)(O/N=C(\C(=O)N[C@@H]1C(=O)N2C(C(=O)[O-])=C(C[n+]3ccccc3)CS[C@H]12)c1csc(N)n1)C(=O)O | > 64 µg/mL
NCC[C@H](O)C(=O)N[C@@H]1C[C@H](N)[C@@H](O[C@H]2O[C@H](CN)[C@@H](O)[C@H](O)[C@H]2O)[C@H](O)[C@H]1O[C@H]1O[C@H](CO)[C@@H](O)[C@H](N)[C@H]1O | 32 µg/mL
CO/N=C(\C(=O)N[C@@H]1C(=O)N2C(C(=O)O)=C(CSc3nc(=O)c(O)nn3C)CS[C@H]12)c1csc(N)n1 | > 64 µg/mL

Lookup: Could you share what MIC was measured for "C[C@H]1COc2c(N3CCN(C)CC3)c(F)cc3c(=O)c(C(=O)O)cn1c23.C[C@H]1COc2c(N3CCN(C)CC3)c(F)cc3c(=O)c(C(=O)O)cn1c23.O" , tested on Escherichia coli?
Found: > 8 µg/mL

###

- Tested on: Escherichia coli
- measurement-notes: Antimicrobial activity against Escherichia coli isolate 544 expressing beta-lactamase KPC2, TEM and PFGE cluster 4 isolated from abscess of patient by vitek-2 method
- Assay type: functional
assay-readout: MIC

Past entries and their recorded results:
compound | MIC
CC(C)(O/N=C(\C(=O)N[C@@H]1C(=O)N2C(C(=O)[O-])=C(C[n+]3ccccc3)CS[C@H]12)c1csc(N)n1)C(=O)O [CEFTAZIDIME] | 16 µg/mL
CO/N=C(\C(=O)N[C@@H]1C(=O)N2C(C(=O)O)=C(CSc3nc(=O)c(O)nn3C)CS[C@H]12)c1csc(N)n1 [CEFTRIAXONE] | 32 µg/mL
NCC[C@H](O)C(=O)N[C@@H]1C[C@H](N)[C@@H](O[C@H]2O[C@H](CN)[C@@H](O)[C@H](O)[C@H]2O)[C@H](O)[C@H]1O[C@H]1O[C@H](CO)[C@@H](O)[C@H](N)[C@H]1O [AMIKACIN] | 8 µg/mL

Lookup: What value of MIC on Escherichia coli does C[C@H]1COc2c(N3CCN(C)CC3)c(F)cc3c(=O)c(C(=O)O)cn1c23.C[C@H]1COc2c(N3CCN(C)CC3)c(F)cc3c(=O)c(C(=O)O)cn1c23.O [LEVOFLOXACIN] have?
Found: > 8 µg/mL
